The values you see were collected from paper PMC11767309.

Below is a list of entries, each paired with its recorded IC50 value.
target: butyrylcholinesterase (BChE) (Equus caballus, UniProt P81908); construct: butyrylcholinesterase (BChE, E.C. from equine serum); purchased Sigma Aldrich (St. Louis, MO, USA); host or cells: equine serum; test: biochemical; set-up: species or system equine; conditions: BChE IC50 (μM)
Sequence (P81908 whole entry): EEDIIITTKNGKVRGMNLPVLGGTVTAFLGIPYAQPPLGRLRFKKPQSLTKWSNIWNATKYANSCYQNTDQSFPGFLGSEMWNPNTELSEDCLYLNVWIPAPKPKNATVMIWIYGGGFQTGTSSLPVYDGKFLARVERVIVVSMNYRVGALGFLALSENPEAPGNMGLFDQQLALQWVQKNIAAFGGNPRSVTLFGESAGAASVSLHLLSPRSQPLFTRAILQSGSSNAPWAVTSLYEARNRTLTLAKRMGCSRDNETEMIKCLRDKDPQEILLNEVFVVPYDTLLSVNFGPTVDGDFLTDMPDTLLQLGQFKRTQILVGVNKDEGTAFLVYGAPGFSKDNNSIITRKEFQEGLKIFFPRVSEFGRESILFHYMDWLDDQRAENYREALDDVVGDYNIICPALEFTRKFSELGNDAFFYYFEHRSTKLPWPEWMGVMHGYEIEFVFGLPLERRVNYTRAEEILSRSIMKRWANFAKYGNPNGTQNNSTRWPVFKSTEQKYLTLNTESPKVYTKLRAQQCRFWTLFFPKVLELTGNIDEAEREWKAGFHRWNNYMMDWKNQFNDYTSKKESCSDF
Give a bare numeral; the unit µM is implied.

Cc1ccc(/C=C/c2cc(Cl)ccc2OC(=O)N(C)C)s1 23.2

Entry "Cc1cnc(/C=C/c2cc(Cl)ccc2OC(=O)N(C)C)s1" has what IC50?
3.77

One more compound: "CN(C)C(=O)Oc1ccccc1/C=C/c1cccs1"
0.12
